molecular target: NAMPT (Homo sapiens (Human)); test: Biochemical Inhibition Assay (NAMPT enzymatic reaction, NMN quantified by mass spectrometry); conditions: 33 nM recombinant His-tagged NAMPT, 1 μM NAM, 30 min at rt
quantityKind: IC50 (nM)

# annotated cases, reported IC50 shown
O=C(NCc1ccc(S(=O)(=O)c2cccc(C(F)(F)F)c2)cn1)c1cnc2[nH]ncc2c1 ... 39.4
CCCC(=O)N1CCC(S(=O)(=O)c2ccc(CNC(=O)c3cc4ccncc4o3)nc2)CC1 ... 39.8
CCN(C)c1ncc(S(=O)(=O)c2ccc(CNC(=O)N3Cc4ccncc4C3)nc2)s1 ... 6.83
O=C(NCc1ccc(S(=O)(=O)c2ccc(N3CCOCC3)nc2)cn1)N1Cc2ccncc2C1 ... 14
O=C(NCc1ccc(S(=O)(=O)C2CCN(CC(F)(F)F)CC2)cn1)c1cnc2nccn2c1 ... 3
O=C(NCc1ccc(S(=O)(=O)c2cnc(N3CCCC3)s2)cn1)c1cc2ccncc2o1 ... 9.45
O=C(NCc1ccc(S(=O)(=O)N2CCN(C3COC3)CC2)cn1)N1Cc2ccncc2C1 ... 220
O=C(NCc1ccc(S(=O)(=O)C2CCN(CC(F)(F)F)CC2)cn1)c1cc2ccncc2o1 ... 5.24

P. O=C(NCc1ccc(S(=O)(=O)C2CCN(C3CCOCC3)CC2)cn1)c1cc2cnccc2[nH]1
Q. O=C(NCc1ccc(S(=O)(=O)c2cc(F)cc(F)c2)cn1)c1cnc2nccn2c1
Req: Hi team, can someone confirm which has the larger IC50: P or Q ? Thanks. Lab log: write the label of the selected item as the result.
Resp: P

---

target: NAMPT (Homo sapiens (Human), UniProt P43490); experiment: Biochemical Inhibition Assay (NAMPT enzymatic reaction, NMN quantified by mass spectrometry); conditions: 33 nM recombinant His-tagged NAMPT, 1 μM NAM, 30 min at rt
Sequence (P43490 whole entry): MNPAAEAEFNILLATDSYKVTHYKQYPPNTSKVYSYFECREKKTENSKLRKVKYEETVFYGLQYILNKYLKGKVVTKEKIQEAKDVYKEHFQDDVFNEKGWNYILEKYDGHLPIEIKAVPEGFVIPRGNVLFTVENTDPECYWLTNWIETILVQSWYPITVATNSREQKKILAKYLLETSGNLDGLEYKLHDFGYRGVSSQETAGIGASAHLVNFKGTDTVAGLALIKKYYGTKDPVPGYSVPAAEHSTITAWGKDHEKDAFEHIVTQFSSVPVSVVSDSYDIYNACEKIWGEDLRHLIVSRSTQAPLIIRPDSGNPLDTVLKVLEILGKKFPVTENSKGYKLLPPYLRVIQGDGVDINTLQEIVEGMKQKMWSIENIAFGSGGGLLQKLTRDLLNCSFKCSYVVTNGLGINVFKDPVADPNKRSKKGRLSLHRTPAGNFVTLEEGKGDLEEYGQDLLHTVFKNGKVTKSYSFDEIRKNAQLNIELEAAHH
quantityKind: IC50 (nM)

O=C(NCc1ccc(S(=O)(=O)c2ccc(N3CCOCC3)nc2)cn1)c1cnc2[nH]ncc2c1 [Example 41] ... 19
CCCn1cc(S(=O)(=O)c2ccc(CNC(=O)c3cc4cnccc4[nH]3)nc2)cn1 [Example 171] ... 62
CCS(=O)(=O)c1cccc(S(=O)(=O)c2ccc(CNC(=O)N3Cc4ccncc4C3)nc2)c1 [Example 114] ... 2.12

1. O=C(NCc1ccc(S(=O)(=O)c2ccccc2)cn1)c1ccc2nccn2c1 [Example 184]
2. O=C(NCc1ccc(S(=O)(=O)C2CCOCC2)cn1)c1ccc2nccn2c1 [Example 60]
3. O=C(NCc1ccc(S(=O)(=O)c2ccc(C(F)(F)F)nc2)cn1)c1cc2ccncc2s1 [Example 78]
4. O=C(NCc1ncc(S(=O)(=O)c2cc(F)cc(F)c2)cn1)c1cc2ccncc2o1 [Example 182]
Req: // sort entries: IC50, high to low I'd appreciate it if you listed the labels in the requested order.
Resp: 2, 1, 3, 4
(2: 693 nM, 1: 99.2 nM, 3: 59.4 nM, 4: 25.1 nM)

A. Cn1cc(S(=O)(=O)c2ccc(CNC(=O)c3ccc4nccn4c3)nc2)cn1 [Example 36]
B. O=C(NCc1ccc(S(=O)(=O)C2CCN(C3COC3)CC2)cn1)N1Cc2ccncc2C1 [Example 104]
Req: # min-compare on IC50 between A and B Your answer should be the label attached to the chosen record.
Resp: B
